system: Inhibin beta A chain (activin A); assay: small molecules binding activin A – biochemical, small-molecule microarray, 635 nm fluorescence scan, primary screen (AID 1107); details: INHBA, higher = more signal;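 note: mouse activin A protein probed at 4.33 µg/mL on printed slides; score merges bound-protein fluorescence near 667 nm with spot signal-to-noise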
quantity-kind: composite z-score
Numbers only.

Please review the following examples before continuing.
[[record]]
molecule = "COc1cc2c(cc1O)C(C1CC1)N(Cc1cccc(OC(F)(F)F)c1)CC2 (centres undefined)"
endpoint_result = 1.45

[[record]]
molecule = "COc1cc(NN2C(C(O)c3ccco3)C=CC3C(=O)N(C)C(=O)C32)cc(OC)c1OC (centres undefined)"
endpoint_result = 0.752

[[record]]
molecule = "Cc1ccc(S[C@]2(C(=O)NCC(F)(F)F)CC(=O)N(Cc3cc(C(F)(F)F)cc(C(F)(F)F)c3)[C@@H]2c2ccc(CO)cc2)cc1"
endpoint_result = -0.45


Attention now turns to another entry.
The recorded composite z-score for entry CC(=O)NCCCC[C@@H]1NC(=O)[C@@H]2C[C@H](C(=O)NCCCCCN)[C@H](c3cccc(OCCO)c3)N2C1=O equals 0.488

* * *

Assignment: determine reported composite z-score for the given compounds.
test: probe aNOTCH2 binding on compound microarray – biochemical, small-molecule microarray, 635/667 nm fluorescence, primary screen (AID 1121); settings: higher = more signal;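 note: score merges feature fluorescence read at 667 nm with its signal to noise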

# annotated cases, reported composite z-score shown
[[record]]
compound = "C=CCC(OC(C)=O)[C@@H]1[C@@H](N(Cc2cc3ccccc3o2)C(=O)Cc2ccc(F)cc2)c2cc(OCCCO)ccc2N1C(=O)Cc1ccc2ccccc2c1 (some centres undefined)"
endpoint_result = -0.104

[[record]]
compound = "C=CCC(OC(C)=O)[C@@H]1[C@@H](N(Cc2ccc(-c3cccc(C(F)(F)F)c3)o2)C(=O)c2ccc(-c3ccccc3)cc2)c2cc(OCCCO)ccc2N1C(=O)Cc1ccc2ccccc2c1 (some centres undefined)"
endpoint_result = -0.11

[[record]]
compound = "C=CC[C@@H](OC(=O)Nc1ccc(SC)cc1)c1ccc(O)c(F)c1"
endpoint_result = -0.114


Consider now this further compound.
Reported composite z-score for COc1ccc([Si](C)(C)[C@@H]2[C@@H](CCO)O[C@]3(C(=O)N(Cc4ccccc4)c4ccc(NC(=O)[C@H](C)O)cc43)[C@H]2C)cc1 was -0.106

* * *

For each record, write down the corresponding composite z-score.
system: Inhibin beta A chain (activin A); assay: small molecules binding activin A – biochemical, small-molecule microarray, 635 nm fluorescence scan, primary screen (AID 1107); conditions: INHBA, higher = more signal;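 note: mouse activin A protein probed at 4.33 µg/mL on printed slides; score merges bound-protein fluorescence near 667 nm with spot signal-to-noise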
Numbers only.

Worked cases, answers included:
[[record]]
compound = "C=C(COC)C(=O)CC[C@@H](OC(C)=O)c1cccc(OCCO)c1"
endpoint_result = 1.01

[[record]]
compound = "OCCCC1=CC(c2ccc(CN3CCCC3)cc2)N(Cc2cc3c(cc2Br)OCO3)CC1 (centres undefined)"
endpoint_result = 1.57

[[record]]
compound = "CC#CCO[Si](C#Cc1ccccc1)(C(C)C)C(C)C"
endpoint_result = 1.14

[[record]]
compound = "COc1ccc(CCNC(=O)[C@@]2(Sc3ccc(C)cc3)CC(=O)N(Cc3ccccc3C(F)(F)F)[C@@H]2c2ccc(CO)cc2I)cc1"
endpoint_result = 0.67

[[record]]
compound = "COCCOC(=O)N1C(=O)[C@@]2(c3cc(C#CC4=CCCCC4)ccc31)[C@H](C(=O)Nc1nc3ccccc3s1)[C@H]1C(=O)O[C@H](c3ccccc3)[C@H](c3ccccc3)N1[C@@H]2c1ccc(O)cc1"
endpoint_result = 0.872

[[record]]
compound = "C=CCOC(=O)[C@@H]1[C@H]2C(=O)O[C@H](c3ccccc3)[C@H](c3ccccc3)N2[C@H](c2ccc(OCCOC(=O)[C@@H]3C[C@@H]4C(=O)N[C@@H](CCCC[N+](C)(C)C)C(=O)N4[C@@H]3c3ccc(O)cc3)cc2)[C@@]12C(=O)Nc1ccc(I)cc12"
endpoint_result = 0.192

[[record]]
compound = "C=CCNC(=O)[C@@H]1[C@H]2C(=O)O[C@H](c3ccccc3)[C@H](c3ccccc3)N2[C@H](c2ccccc2OCCO)[C@@]12C(=O)Nc1ccc(C#CCCO)cc12"
endpoint_result = 0.65

[[record]]
compound = "O=C1C[C@]2(c3ccc([N+](=O)[O-])cc3)C(=O)N(C3CC3)c3cc(CO)ccc3[C@H]2N1CC12CC3CC(CC(C3)C1)C2"
endpoint_result = -0.383


// for each compound in input: emit composite z-score
1. COc1ccc(C#Cc2ccc3c(c2)[C@]2(C(=O)N3)[C@H](c3ccc(O)cc3)N3[C@H](c4ccccc4)[C@H](c4ccccc4)OC(=O)[C@H]3[C@@H]2C(=O)Nc2nc3ccccc3s2)cc1
2. O=c1cccc(-c2ccc([N+](=O)[O-])cc2)o1

1: -0.604; 2: 1.22

# batch: return composite z-score for each of the 3 compounds below
1. COc1ccc(C(=O)Nc2ccc(CN3C(=O)[C@]4(O[C@H](CC(=O)N5Cc6ccccc6C[C@H]5CO)[C@@H]([Si](C)(C)c5ccc(OC)cc5)[C@@H]4C)c4ccccc43)cc2)cc1
2. COC(=O)[C@]1(CCS(=O)(=O)c2ccccc2)N=C(c2ccc(OCCCO)cc2)O[C@@H]1c1ccccc1N=[N+]=[N-]
3. CCCCCCCCCCC(O)C1C=CC2C(=O)N(c3ccccc3)C(=O)C2N1Nc1ccc(C#N)cc1 (centres undefined)

1: 0.518; 2: 0.199; 3: 1.02

* * *

test: compound effects on hepatocellular carcinoma cell viability – HepG2, calcein-AM fluorescence, 48 h, basal, profiling panel (AID 1164); conditions: higher = more signal; note: test concentration not given here
I'd appreciate it if you could label each record using z-score and these ranges: bottom range = under -0.7, center range = from -0.7 up to -0.06, top range = -0.06 and over

Below, 3 compounds whose answers are already recorded.
[[record]]
compound = "CCCN1C(=O)[C@]2(Cc3ccccc31)N=C(c1ccc(OCCCO)cc1)O[C@@H]2c1ccccc1"
discrete_label = "bottom range"

[[record]]
compound = "COc1ccc([Si](C)(C)[C@@H]2[C@@H](CCO)O[C@]3(C(=O)N(Cc4ccccc4)c4ccc(N5C(=O)c6cccc7cccc5c67)cc43)[C@H]2C)cc1"
discrete_label = "bottom range"

[[record]]
compound = "Cc1ccc(C(C)CC(O)C2C=CC3C(=O)N(c4ccccc4)C(=O)C3N2Nc2ccccc2)o1 (stereo not given)"
discrete_label = "top range"


Using the reported z-score, which band applies to CCOc1cc(C(O)C2C=CC3C(=O)NC(=O)C3N2Nc2ccc(Cl)cc2Cl)ccc1O (stereo not given) ? center range

Please report the category associated with C=C(C(=O)CC[C@H](OC(=O)c1ccccc1-c1ccccc1C(=O)O)c1cccc(OCCO)c1)C(C)C , nothing else. center range

Hi, small favor: classify COCCCNC(=O)[C@@H]1c2ccccc2C(=O)N(C(C)C)[C@H]1c1ccc(CO)cc1 by its z-score when you get a moment. center range

Exercise: read the entry C#Cc1cc2ccccc2oc1=O and state which class it falls under. center range

Looking at COCCCNC(=O)[C@@]1(CCC(=O)OC(C)(C)C)N=C(c2ccc(OCCCO)cc2)O[C@H]1c1ccccc1N=[N+]=[N-] , which class would you pick? top range

// bin(item) where item = COc1ccc([Si](C)(C)[C@@H]2[C@@H](CCO)O[C@]3(C(=O)N(Cc4cccc(NC(=O)[C@H](C)O)c4)c4ccccc43)[C@H]2C)cc1 bottom range

Using the reported z-score, which band applies to CCCCCN1CC=CC23O[C@@H]4C=CCCOC(=O)C4[C@H]2C(=O)N(CCCCCCO)[C@@H]3C1=O (stereo not given in full) ? top range

Categorize the following entry: CCCC=C(CCC)[C@@H](NS(=O)(=O)CC12CCC(CC1=O)C2(C)C)c1ccc(C(=O)OC)cc1 (stereo not given in full) bottom range

Class? Entry: COc1ccc(C#Cc2ccc3c(c2)[C@]2(C(=O)N3)[C@H](c3ccc(O)cc3)N3[C@H](c4ccccc4)[C@H](c4ccccc4)OC(=O)[C@H]3[C@@H]2C(=O)Nc2nc3ccccc3s2)cc1 top range

Using the reported z-score, which band applies to CC(C)[Si](C#CCCCC#N)(O[C@H](c1ccccc1)c1cn(Cc2ccccc2)nn1)C(C)C ? center range

Using the reported z-score, which band applies to COc1ccc([Si](C)(C)[C@H]2[C@H](CC(=O)N3CCC[C@H]3CO)O[C@@]3(C(=O)N(Cc4ccc(N5CCOC5=O)cc4)c4ccccc43)[C@@H]2C)cc1 ? center range

Entry C=CC[C@]1(C(=O)N2CCOCC2)COC(c2ccc(OCCCO)cc2)=N1 belongs to which category? bottom range

Could you tell me which band CC(=O)NCCCC[C@@H]1NC(=O)[C@@H]2C[C@H](C(=O)NCCCCCN)[C@H](c3ccc(O)cc3)N2C1=O belongs to? center range

Entry C=CCNC(=O)[C@@H]1[C@H]2C(=O)O[C@H](c3ccccc3)[C@H](c3ccccc3)N2[C@H](c2ccccc2OCCO)[C@@]12C(=O)N(C(=O)OCCOC)c1ccc(C#CC3(O)CCCCCC3)cc12 belongs to which category? bottom range

Could you place CCOC(=O)C[C@H]1[C@H](OC(=O)c2cc3ccccc3oc2=O)[C@@H](NC(=O)c2ccccc2)c2cc(OCCCO)ccc2N1C(=O)c1ccccc1 in its proper category? Many thanks. center range

Which category fits this record: CCCCC(O)C1C=CC2C(=O)N(C)C(=O)C2N1N(c1ccccc1)c1ccccc1 (stereo not given) top range

Hello team, could you let me know which band the following compound falls into: CCCC=C(CCC)[C@@H](NC(=O)C(C)(C)C)c1ccc(C(=O)OC)cc1 center range

Which z-score band matches COCCOC(=O)N1C(=O)[C@@]2(c3cc(C#CC4=CCCCC4)ccc31)[C@H](c1ccccc1OCCO)N1[C@H](c3ccccc3)[C@H](c3ccccc3)OC(=O)[C@H]1[C@@H]2C(=O)N1CCN(c2ncccn2)CC1 ? top range

Place this compound in its band: C=CCNC(=O)[C@H]1[C@@H]2C(=O)O[C@@H](c3ccccc3)[C@@H](c3ccccc3)N2[C@@H](c2ccccc2OCCO)[C@]12C(=O)N(C(=O)OCCOC)c1ccc(C#CC3(O)CCCCCC3)cc12 top range

Bin this entry: O=C1N(Cc2ccccc2)c2ccccc2C[C@]12N=C(c1ccc(OCCCO)cc1)O[C@@H]2c1ccccc1 bottom range
